tested on: Plasmodium falciparum; experiment: Confirmatory screen in NF54 pLDH assay, in single point, at 2uM, 72h; assay type: functional, Erythrocyte; conditions: timepoint 72 hour
In all, about 4,800 compounds went through this assay and about 410 (8.5%) showed an effect of 50% or more. Many of the other results were omitted from the sample, so strong results are more common in it than they were.
Each entry below carries its recorded % Inhibition.
Property Name: % Inhibition (%)

INSERT INTO measurements (compound, experimental_value) VALUES
  ('Cc1cc(N(C)CCC2CC2)nc([C@H](C)N(C)CCC2CC2)n1', 61),
  ('Cc1ccc(NS(=O)(=O)c2ccc(NC(=O)CN(c3cc(Cl)ccc3C)S(C)(=O)=O)cc2)cc1C', -13),
  ('Cc1nn(C)cc1C(=O)N1CCN(c2nncc3ccccc23)CC1', -10),
  ('CC(C#N)CNCCC(C)c1ccccc1 (stereo not drawn)', 8),
  ('COc1cc(CN(C)[C@H]2CCc3nnc(C4CCOCC4)n3CC2)cc(OC)c1', 1),
  ('O=C(Nc1cc(N2CCCS2(=O)=O)ccc1O)c1cccc(Oc2cccc(C(F)(F)F)c2)c1', 97),
  ('O=C(Nc1ccccc1Cl)Nc1cccc2c(-c3ccccc3)c(C(=O)N3CCOCC3)[nH]c12', 12),
  ('COCc1nsc(N2CCC(c3c(F)cccc3F)CC2)n1', 7),
  ('CCN(CC)c1ccc(C(=O)C(F)(F)F)c(O)c1', 0),
  ('O=c1[nH]c2nc(N3CCCCC3)ncc2c(=O)n1Cc1ccco1', -14),
  ('COc1ccc(S(=O)(=O)N2CC[C@@H]3[C@@H](COCCN3Cc3ccccc3)C2)cc1', 0),
  ('COc1ccc(OC)c(NC(=O)CN2CCc3[nH]c4ccc(F)cc4c(=O)c3C2)c1', 83),
  ('COc1cc2c(cc1CNc1nc(N)nc3c1CCNCC3)CCC2', 11),
  ('O=C(Cc1cccc2ccccc12)NC(C1CC1)C1CC1', -12),
  ('Cc1cc(Cn2c(=O)n(Cc3ccccc3)c3ccncc32)on1', 7),
  ('Cc1cc(N(CCO)C2CC2)nc(C2CC2)n1', -18),
  ('Cc1ccc(CCC(=O)N2CC[C@H](C)S(=O)(=O)CC2)s1', 9),
  ('Nc1n[nH]c2c(Cl)c3nnc(-c4ccccc4)n3c(Cl)c12', 13),
  ('CCOc1cc(-c2cc(-c3ccccc3O)nc3ccc4ccccc4c23)cc(Br)c1O', 92),
  ('Cc1cnn(CCCNC(=O)c2ccc3[nH]c4c(c3c2)CCCC4)c1', 5),
  ('Cc1ocnc1C(=O)N[C@H]1CCN(c2ccc(Cl)c(F)c2)C1=O', 7),
  ('CCOCC(=O)Nc1ccc(OC(F)(F)F)cc1', -14),
  ('NC(=O)c1cc(Cl)c(Cl)c(Cl)c1', -22);
